Cited source for all entries: patent US9957271B2

Biological target: SIRT1 (Homo sapiens, UniProt Q96EB6)
Sequence (Q96EB6 1-747): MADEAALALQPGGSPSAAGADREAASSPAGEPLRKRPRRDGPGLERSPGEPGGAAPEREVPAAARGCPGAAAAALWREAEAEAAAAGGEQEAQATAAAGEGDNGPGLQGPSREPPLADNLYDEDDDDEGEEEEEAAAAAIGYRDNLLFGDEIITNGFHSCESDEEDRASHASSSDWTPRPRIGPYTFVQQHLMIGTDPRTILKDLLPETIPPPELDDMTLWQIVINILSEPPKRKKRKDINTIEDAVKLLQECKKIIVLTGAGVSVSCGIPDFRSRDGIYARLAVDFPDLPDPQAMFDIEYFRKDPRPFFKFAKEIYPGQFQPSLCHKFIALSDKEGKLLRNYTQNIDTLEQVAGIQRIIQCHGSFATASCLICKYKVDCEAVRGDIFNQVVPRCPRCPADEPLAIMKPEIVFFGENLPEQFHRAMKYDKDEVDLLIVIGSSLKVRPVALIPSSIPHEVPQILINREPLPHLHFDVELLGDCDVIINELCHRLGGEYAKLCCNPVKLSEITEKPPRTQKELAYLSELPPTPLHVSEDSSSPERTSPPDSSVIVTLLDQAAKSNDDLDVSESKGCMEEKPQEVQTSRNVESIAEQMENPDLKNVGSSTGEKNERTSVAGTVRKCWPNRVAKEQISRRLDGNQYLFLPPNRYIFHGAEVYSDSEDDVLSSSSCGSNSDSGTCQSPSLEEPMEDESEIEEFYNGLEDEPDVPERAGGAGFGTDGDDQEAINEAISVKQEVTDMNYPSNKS
Test: TAMRA based mass spectrometry assay of SIRT1 activity
Type: biochemical
Details: TAMRA peptide substrate; percent maximum fold activation; read-out: TAMRA % Fold Act
value-type: Emax

• Cc1nc2ccc(-c3ccccc3OC(F)(F)F)nn2c1C(=O)Nc1ccncc1F = ≥ 350%
• Cc1cc(C)nc(NC(=O)c2cnc3ccc(N4CC[C@@H](N(C)C)C4)nn23)c1 = < 350%
• COc1cccc(NC(=O)c2cnn3ccc(-c4ccccc4C(F)(F)F)nc23)n1 = ≥ 350%

Task: Look up Emax for this compound: Cc1c(-c2ccccc2C(F)(F)F)nn2c(NC(=O)c3cccc(OCC(O)CO)n3)cnc2c1C (stereo not drawn)
Result: ≥ 350%

Task: Entry to check: Cc1cc(C)nc(C(=O)Nc2cnc3ccc(-c4ccccc4C(F)(F)F)nn23)c1
Result: ≥ 350%

Task: Entry to check: O=C(Nc1ncccn1)c1ncn2ccc(-c3ccccc3C(F)(F)F)nc12
Result: ≥ 350%

Task: Entry to check: O=C(Nc1cccc(N2CCOCC2)n1)c1cnc2ccc(N3CCC(F)(F)C3)nn12
Result: < 350%

Task: Entry to check: Cc1nc2c(C)cc(-c3ccccc3C(F)(F)F)nn2c1C(=O)Nc1cccc(N2CC3(COC3)C2)n1
Result: ≥ 350%

Task: Entry to check: Cc1nc2ccc(-c3ccccc3OC(F)(F)F)nn2c1C(=O)Nc1ccc(F)cn1
Result: < 350%

Task: Entry to check: O=C(Nc1cnc2ccc(-c3ccccc3C(F)(F)F)nn12)c1cccc(-n2cnnc2)n1
Result: ≥ 350%

Task: Entry to check: Cc1cccc(NC(=O)c2cnc3c(C)cc(-c4ccccc4C(F)(F)F)nn23)n1
Result: ≥ 350%

Task: Entry to check: Cc1cc(-c2ccccc2C(F)(F)F)nn2c(NC(=O)c3cccc(N4CCOCC4)n3)cnc12
Result: ≥ 350%

Task: Entry to check: Cc1scnc1C(=O)Nc1cnc2c(C)c(C)c(-c3ccccc3C(F)(F)F)nn12
Result: ≥ 350%

Task: Entry to check: O=C(Nc1ccncc1F)c1cnn2ccc(-c3ccccc3C(F)(F)F)nc12
Result: ≥ 350%

Task: Entry to check: Cc1nc2ccc(-c3ccccc3C(F)(F)F)nn2c1NC(=O)c1cscn1
Result: < 350%

Task: Entry to check: Cc1cc(-c2ccccc2C(F)(F)F)nn2c(NC(=O)c3ccncn3)cnc12
Result: ≥ 350%

Task: Entry to check: Cc1nc2c(C)cc(-c3ccccc3C(F)(F)F)nn2c1C(=O)Nc1cncc(OC[C@H](O)CO)n1
Result: ≥ 350%

Task: Entry to check: Cc1cc(NC(=O)c2cnc3ccc(-c4ccccc4OC(F)(F)F)nn23)nc(C)n1
Result: ≥ 350%

Task: Entry to check: Cc1cccc(NC(=O)c2c(C)nc3c(C)cc(-c4ccccc4C(F)(F)F)nn23)n1
Result: ≥ 350%

Task: Entry to check: Cc1cc(-c2ccccc2C(F)(F)F)nn2c(NC(=O)c3cccc(N4CCC4)n3)cnc12
Result: ≥ 350%

Task: Entry to check: O=C(Nc1ncccn1)c1cnn2ccc(-c3ccccc3OC(F)(F)F)nc12
Result: < 350%

Task: Entry to check: Cc1cc(-c2ccccc2C(F)(F)F)nn2c(C(=O)Nc3ccc(F)cn3)cnc12
Result: ≥ 350%

Task: Entry to check: Cc1nc2c(C)cc(-c3ccccc3OC(F)(F)F)nn2c1C(=O)Nc1cccc(N2CC3(COC3)C2)n1
Result: ≥ 350%
